Test system: NCI/ADR-RES ovarian
Test summary: NCI tumour cell line growth inhibition, 48 h
Value kind: TGI

| Molecule | Reported measurement |
| --- | --- |
| NC(N)=NCCC1OC(=O)C2=C1c1c(O)ccc3nccc(c13)O2 (stereo not given) | > 100 µM |
| CCn1c(-c2nonc2N)nc2c(C#CC(C)(C)O)nc(OCCNC)cc21 | > 25 µM |
| COc1ccc2c(c1)/C(=C\c1c(Cl)[nH]c3ccc(OC)cc13)C(=O)N2 | > 100 µM |
| Cn1c(=O)c2c(nc3n(Cc4ccccc4)c(=O)c(NCCCBr)cn23)n(C)c1=O | > 100 µM |

Next item in the queue.
## Task I am curious: what TGI value has been reported for Cc1nc2sccn2c1-c1csc(Nc2cccc(Cl)c2C)n1 ?
## Result 45.2 µM

====

System: K-562 leukemia
Test summary: NCI tumour cell line growth inhibition, 48 h; in the data active = GI50 below about 0.43 µM; inactive = the rest
Log the outcome using a class from t for active, f for inactive

These recorded examples may help you get a feel for the data.
| Molecule | Cat |
| --- | --- |
| COc1ccc(C2=NN(C=O)C(c3cccc(Nc4ccnc5cc(Cl)ccc45)c3)C2)cc1 (centres undefined) | f |
| C=C1C(=O)O[C@H]2[C@H]1CC/C(COC(=O)c1cc3cc(Cl)ccc3[nH]1)=C\CC[C@@]1(C)O[C@@H]21 | f |
| Cc1cc(S(=O)(=O)NC#N)c(S/C(=N\Nc2ccc([N+](=O)[O-])cc2)c2ccc(Cl)cc2)cc1Cl | f |
| CCOc1cccc(/C=N/NC(=O)C(=O)Nc2cccc(C(F)(F)F)c2)c1O | f |

Then this molecule:
## Task # lookup: test call for COc1ccc(-c2ccc(-c3ccc(C(=N)N)cn3)o2)cc1
## Result f

====

Tested on: NCI/ADR-RES ovarian
Test summary: NCI tumour cell line growth inhibition, 48 h
Recorded measurements of TGI, one per entry

| Compound | TGI |
| --- | --- |
| CC1=NN(c2nc(N)nc(-c3sccc3N)n2)C(C)(C)C1 | > 100 µM |
| Cn1c2c(c3ccc(Cl)c(Cl)c31)C(C#N)C1(CCNCC1)NC2=O (configuration not stated) | 12.2 µM |
| CC(C)C(CC(=O)OCC(CO)OC(=O)CC(C(C)C)C(C)C)C(C)C (configuration not stated) | 27.3 µM |
| COc1cc(-c2n/c(=C\c3c(O)[nH]c4ccc(Cl)cc34)cc3c2=Nc2ccccc2-3)ccc1F | 5.04 µM |
| Cc1ccc(-c2csc(NC(=O)CN3CCN(c4cc5c(cc4F)c(=O)c(C(=O)O)cn5C4CC4)CC3)n2)cc1 | 34 µM |

## Task Reported TGI for CCN(CC)C(=S)Oc1cc2oc(=O)cc(C)c2cc1Cl : what is it?
## Result > 100 µM

## Task Which TGI value is on record for C/C=C(/C)C(=O)OC1CC(C)[C@H]2CC(=O)C(C)=C2CC1C(C)(C)OC(C)=O (some centres not stated) ?
## Result 71.7 µM

## Task Look at this compound and give its reported TGI. O=C(/C=C/C(=O)N1CCCC1)N1CCCC1
## Result > 100 µM

====

Test system: SK-MEL-28 melanoma
Test summary: NCI tumour cell line growth inhibition, 48 h; in the data active = GI50 below about 0.43 µM; inactive = the rest
Output constraint: value belongs to label 1 (active), label 0 (inactive)

The examples below pair each entry with its known result.
| Molecule | Cat |
| --- | --- |
| CC[C@H](Nc1nc(C)nc(N)c1C#N)c1nc2cccc(NCc3ccc(C(=O)NO)cc3)c2c(=O)n1-c1ccccc1 | label 0 |
| CN(C)CCCNC(=O)c1ccc2c(c1)oc1cc3ccccc3c(=O)n12 | label 0 |
| COc1ccc(-c2ccc(-c3ccc(C(=N)N)cn3)o2)cc1 | label 0 |
| CCCCCCCCCCCCCCCCCC1=NCCN1C(=O)OCCO | label 0 |
| C=C1C(=O)O[C@H]2[C@H]1CC/C(COC(=O)c1cc3cc(Cl)ccc3[nH]1)=C\CC[C@@]1(C)O[C@@H]21 | label 0 |

## Task Record request — test call for CCc1c(CNc2ccc(C(=O)NC(CC(=O)O)C(=O)O)cc2)ccc2nc(N)nc(N)c12 (stereo not drawn)
## Result label 0

## Task Dear colleague, could you share the recorded outcome for NC(=O)c1cc2c3ccccc3ccn2c1-c1ccccc1 when you have a moment?
## Result label 0

## Task What classification did Cc1cc2c(cc1Cl)SC1=NN(C)C(N(C)C)N1S2(=O)=O (stereo not drawn) end up with in this test?
## Result label 0

## Task Look up the recorded call for COc1ccc2[nH]c(O)c(C(=Nc3ccc(N(C)C(=O)CN4CCN(C)CC4)cc3)c3ccccc3)c2c1 in this test.
## Result label 0

## Task Test call for this molecule, please: COc1cc(C(=O)Nc2cc3c(cc2Oc2cc(C)cc(C)c2)C(=O)N(C)[C@@H](CC(=O)N(C)O)C(=O)N3)c(Br)c(OC)c1OC
## Result label 1

## Task What classification did COc1ccc2c(c1)/C(=C\c1c(Cl)[nH]c3ccc(OC)cc13)C(=O)N2 end up with in this test?
## Result label 0

## Task Test call for this molecule, please: O=C(O)c1ccc2c(c1)CCCC(c1ccc(Cl)cc1Cl)=C2c1ccc(O[C@H]2CCN(CCCF)C2)cc1
## Result label 0

## Task Please share the test call associated with Cc1sc2nc3c4ccccc4c(NCCCN(C)C)nn3c(=O)c2c1C .
## Result label 0

## Task For CN1C(=O)N(C)C2C1NN=c1s/c(=C\c3ccc(F)cc3)c(=O)n12 (stereo not drawn) , what call appears in the results of this test?
## Result label 0

## Task Hey, what did the test say about Cc1nc2sccn2c1-c1csc(Nc2cccc(Cl)c2C)n1 ?
## Result label 0

====

TGI listing for selected molecules.
System: DMS 273 small cell lung
Test summary: NCI tumour cell line growth inhibition, 48 h

## Task What measured TGI goes with Cc1ccc(-c2cc(-c3ccccc3)c(C#N)c(=O)n2C2OC(CO)C(O)C(O)C2O)cc1 (stereo not given) ?
## Result > 100 µM

## Task Sample CN(C)CCNC(=O)c1cc(Cl)cc2ccc(-c3ccccc3)nc12 — what was its TGI?
## Result 7.48 µM

## Task Which TGI is listed for CCC1=NC(CO)[C@H](c2ccccc2)O1 (stereo not given in full) ?
## Result > 100 µM

## Task Requested read-out: TGI. Entry: NCCCCNc1ccc2c(=O)[nH][nH]c(=O)c2c1
## Result > 100 µM

## Task Query: TGI; subject: CCOC(=O)/C=C1\CCCC12OCCO2
## Result > 100 µM

====

Entries annotated with measured TGI
Test system: HT29 colon
Test summary: NCI tumour cell line growth inhibition, 48 h

Example entries begin here.
| Compound | TGI |
| --- | --- |
| COC(=O)C(=O)C(C(=O)C(=O)Nc1cccc(C(C)=O)c1)c1nc2ccccc2[nH]c1=O (centres undefined) | > 100 µM |
| CCOP(=O)(OCC)OC(C#N)c1ccc(-c2ccccc2)cc1 (centres undefined) | 34.3 µM |
| COc1cc(CC(C)NC(C)=O)cc(OC)c1 (centres undefined) | > 100 µM |
| CCC1=NC(CO)[C@H](c2ccccc2)O1 (some centres undefined) | > 100 µM |

## Task Short answer please: TGI, HT29 colon, entry COc1ccc(C2C3=C(COC3=O)Oc3cc4c(cc32)OCO4)c(OC)c1 (centres undefined)
## Result > 100 µM

## Task Form field - read-out: TGI; system: HT29 colon; submitted item: NC(=O)c1cc2c3ccccc3ccn2c1-c1ccccc1
## Result 9.12 µM

## Task Form field - read-out: TGI; system: HT29 colon; submitted item: O=C1C=CC(=O)c2c(O)c(N3CCC[C@H]3CO)c(Cl)c(O)c21
## Result > 10 µM

====

System: SF-268 CNS
Test summary: NCI tumour cell line growth inhibition, 48 h
GI50 by entry:

## Task For the compound shown here, Cc1ccc(-c2csc(NC(=O)CN3CCN(c4cc5c(cc4F)c(=O)c(C(=O)O)cn5C4CC4)CC3)n2)cc1 , give the reported GI50.
## Result 0.493 µM

## Task // query GI50 value for entry CN(C)CCCNC(=O)c1ccc2c(c1)oc1cc3ccccc3c(=O)n12
## Result 16.1 µM

## Task Sample N.N.N.N.O=C([O-])C(Cl)Cl.O=C([O-])C(Cl)Cl.[Co+3].[O-][Cl+3]([O-])([O-])[O-] — what was its GI50?
## Result > 100 µM

## Task Recorded GI50 for COc1ccc2[nH]c(O)c(C(=Nc3ccc(N(C)C(=O)CN4CCN(C)CC4)cc3)c3ccccc3)c2c1 , please?
## Result 2.1 µM

====

System: SK-MEL-28 melanoma
Test summary: NCI tumour cell line growth inhibition, 48 h
TGI values by entry

| Molecule | TGI |
| --- | --- |
| CN(C)c1ccc(/C=C(\NC(=O)c2ccccc2)c2nn(C)c(=O)o2)cc1 | > 100 µM |

## Task What does the record list as TGI for Cc1cc2ncn(C3CCCCO3)c2cc1C (stereo not given) ?
## Result > 100 µM

## Task Reported TGI, molecule COc1ccc(Nc2nc(N)c(C(=O)c3c[nH]c4ccccc34)s2)cc1 : ____
## Result > 91.6 µM

## Task Any idea what its TGI is? The molecule is CCOC(=O)/C=C1\CCCC12OCCO2
## Result > 100 µM

## Task Reported TGI for CC[O-].CC[O-].O=S(=O)([O-])c1ccc([O-])c2ncccc12.O=S(=O)([O-])c1ccc([O-])c2ncccc12.[Ti+4] : what is it?
## Result > 100 µM
